# System: HepG2-A16-CD81EGFP cells
# condition: HepG2, 3 µM dose, averaged response (percent)
Please provide measured Average HepG2 3 µM response( %) for the entries that follow.
The figure you give is taken to be in %; do not add the unit.

Q. I'd like to know its Average HepG2 3 µM response( %). The compound in question is Cn1ccc(NCc2nnc(C(=O)N3CCC[C@@H]3C(c3ccccc3)c3ccccc3)n2-c2ccccc2)n1 [NCGC00415774]
A. 99

Q. I'd like to know its Average HepG2 3 µM response( %). The compound in question is c1ccc(CNc2nc(-c3ccccn3)nc3ccccc23)cc1 [MLS001165148]
A. 87

Q. I'd like to know its Average HepG2 3 µM response( %). The compound in question is O=c1[nH]c(N2CCOCC2)nc2c1CCN(Cc1ccc(Cl)cc1F)CC2 [NCGC00440653]
A. 102

Q. I'd like to know its Average HepG2 3 µM response( %). The compound in question is CCc1ccccc1OC[C@@H](O)CN[C@@H]1CCCc2ccccc21 [NCGC00025196]
A. 92

Q. I'd like to know its Average HepG2 3 µM response( %). The compound in question is Cn1nc(C(F)(F)F)c(-c2ccc(F)cc2)c1NC(=O)Nc1ccc(F)cc1 [MLS000830769]
A. 99

Q. I'd like to know its Average HepG2 3 µM response( %). The compound in question is COc1cc2c(cc1Oc1cccc(N(C)C)c1)NC(=O)C21CCN(c2cnccn2)CC1 [NCGC00416778]
A. 89

Q. I'd like to know its Average HepG2 3 µM response( %). The compound in question is N=c1c2c(n(Cc3ccccc3)c3c1CCC3)CCC2 [MLS000080128]
A. 74

Q. I'd like to know its Average HepG2 3 µM response( %). The compound in question is O=C(/C=C/c1ccco1)NC(=S)Nc1ccccc1N1CCCC1 [MLS000663784]
A. 105

Q. I'd like to know its Average HepG2 3 µM response( %). The compound in question is Cc1cc(C)n(Cc2ccc(C(=O)N3CCC(c4noc(-c5cccnc5)n4)C3)o2)n1 (centres unmarked) [NCGC00441856]
A. 104

Q. I'd like to know its Average HepG2 3 µM response( %). The compound in question is Oc1ccc(-c2nnc(S)n2-c2ccc3c(c2)OCCO3)c(O)c1 [MLS000332001]
A. 95

Q. I'd like to know its Average HepG2 3 µM response( %). The compound in question is CCOc1ccc(-n2c(SCC(=O)OC)nc3sc4c(c3c2=O)CCN(C)C4)cc1 [MLS001213437]
A. 103

Q. I'd like to know its Average HepG2 3 µM response( %). The compound in question is Cc1ccc(/C=N/NC(=O)c2cc3ccccc3cc2O)o1 [MLS001219838]
A. 98

Q. I'd like to know its Average HepG2 3 µM response( %). The compound in question is CCOC(=O)C1=C(C)N=c2s/c(=C/c3ccc(OCC(=O)O)cc3)c(=O)n2C1c1cc(OC)c(OC)c(OC)c1 (centres unmarked) [MLS001178475]
A. 99

Q. I'd like to know its Average HepG2 3 µM response( %). The compound in question is Cc1ccc(O)c(-c2cc(C(=O)Nc3ccc([S+](=O)([O-])N4CC(C)OC(C)C4)cc3)n[nH]2)c1 (centres unmarked) [NCGC00071593]
A. 97

Q. I'd like to know its Average HepG2 3 µM response( %). The compound in question is CCOc1ccccc1CN1CCC2(CCN(CCC(C)C)CC2)Oc2ccccc21 [NCGC00478188]
A. 105

Q. I'd like to know its Average HepG2 3 µM response( %). The compound in question is O=C(O)c1ccc(-c2nc3cnccc3[nH]2)cc1 [NCGC00375713]
A. 104

Q. I'd like to know its Average HepG2 3 µM response( %). The compound in question is CCCCn1c2c(c(=N)c3c1CCC3)CCC2 [MLS000080126]
A. 80

Q. I'd like to know its Average HepG2 3 µM response( %). The compound in question is COc1ccc(CCN2CCC(Nc3nc4ccccc4n3Cc3ccc(F)cc3)CC2)cc1 [NCGC00016913]
A. 100

Q. I'd like to know its Average HepG2 3 µM response( %). The compound in question is COc1ccc(C(CCN2CCCCC2)c2c(O)cc(OC)cc2OC)cc1 (centres unmarked) [MLS000879486]
A. 88

Q. I'd like to know its Average HepG2 3 µM response( %). The compound in question is CC(C)C(=O)OCC(=O)[C@@]12O[C@H](C3CCCCC3)O[C@@H]1C[C@H]1[C@@H]3CCC4=CC(=O)C=C[C@]4(C)[C@H]3[C@@H](O)C[C@@]12C [NCGC00167484]
A. 92

Q. I'd like to know its Average HepG2 3 µM response( %). The compound in question is COc1ccc(-c2nc3sc(CCNC(=O)c4ccc(C(C)(C)C)cc4)c(C)n3n2)cc1 [NCGC00137079]
A. 98

Q. I'd like to know its Average HepG2 3 µM response( %). The compound in question is CN1CCC(NCCC(c2ccc(F)cc2)c2ccc(Cl)cc2)CC1 (centres unmarked) [MLS001215866]
A. 100

Q. I'd like to know its Average HepG2 3 µM response( %). The compound in question is C=C(C)COc1ccc(-c2ncnc(C(F)(F)F)c2-c2ccc(OC)cc2)c(O)c1 [MLS001216205]
A. 103

Q. I'd like to know its Average HepG2 3 µM response( %). The compound in question is CCN1CCN(Cc2ccc(NC(=O)c3cc(NC(=O)C(=O)c4c[nH]c5ccccc45)cc(OC)c3)cc2C(F)(F)F)CC1.O=C(O)C(F)(F)F [MLS003105970]
A. 106

Q. I'd like to know its Average HepG2 3 µM response( %). The compound in question is N#Cc1c(N2CCN(c3ccc(F)cc3)CC2)nc(N)c2c(N)nc3c(c12)CC(=O)N3C1CC1 [MLS001003889]
A. 90

Q. I'd like to know its Average HepG2 3 µM response( %). The compound in question is Cc1ccc(O)c([C@H](CCN(C(C)C)C(C)C)c2ccccc2)c1 [NCGC00159519]
A. 104

Q. I'd like to know its Average HepG2 3 µM response( %). The compound in question is Cc1cccc(-c2cc3nc(C)c(C)c(NCCCn4ccnc4)n3n2)c1 [MLS000529525]
A. 87

Q. I'd like to know its Average HepG2 3 µM response( %). The compound in question is COc1ccc2[nH]c(C[C@@H]3C[C@@H](C(C)C)[C@H](CNCc4ccccc4OC)C=C3C)nc2c1 [NCGC00392082]
A. 97

Q. I'd like to know its Average HepG2 3 µM response( %). The compound in question is CCN1CCN(C(=O)c2ccc3c(c2)N(Cc2c(F)cccc2Cl)C(=O)c2ccccc2S3)CC1 [NCGC00108184]
A. 107

Q. I'd like to know its Average HepG2 3 µM response( %). The compound in question is COc1cc(O)c(C(CCN2CCCC(C)C2)c2cc(OC)c(OC)c(OC)c2)c(OC)c1 (centres unmarked) [MLS000879467]
A. 86

Q. I'd like to know its Average HepG2 3 µM response( %). The compound in question is COC(=O)[C@H]1[C@H]2C[C@@H]3c4[nH]c5cc(OC)ccc5c4CCN3C[C@H]2C[C@@H](OC(=O)/C=C/c2cc(OC)c(OC)c(OC)c2)[C@@H]1OC [MLS002153878]
A. 105

Q. I'd like to know its Average HepG2 3 µM response( %). The compound in question is CC(C)OCCCNc1sc([S+](=O)([O-])c2ccccc2)nc1[S+](=O)([O-])c1ccc(Cl)cc1 [NCGC00116822]
A. 94

Source: paper PMC7822874
